Recorded values, source ChEMBL document CHEMBL5058577.

Test system: Fibroblast
method: Multiplex assay against human fibroblast
Assay type: toxicity, cell-based
applied.conditions: 24 h, 1 µM, compound concentration 1 uM, replicate 1
Response field label: string, one of true (1) (Population Pyknosed Nuclei (%) strictly below 10%) or false (0).

compound: COc1ccc2c(c1)C(C(=O)N(Cc1ccc(N(C)C)cc1)c1ccc(C(C)C)cc1)CCC2.Cl (centres undefined)
group: false (0)

compound: O=C(O)c1cc2ccccc2c(Cc2c(O)c(C(=O)O)cc3ccccc23)c1O
group: true (1)

compound: Cc1ccccc1C(=O)Nc1ccc(C(=O)N2CCCC(N(C)C)c3ccccc32)cc1.Cl (centres undefined)
group: true (1)

compound: CN(C)CCCc1cc(C(=O)Nc2ccc(-c3ccncc3)cc2)ccc1O.Cl.Cl
group: false (0)

compound: O=C1COc2nccc(-c3ccccc3F)c2CN1Cc1cc(C(F)(F)F)cc(C(F)(F)F)c1
group: false (0)

compound: CCCC(CCC)C(=O)O
group: false (0)

compound: COc1c(C)cc(NC(=O)c2nn(Cc3ccc(F)cc3)c3c2CN(C(=O)c2ccc[nH]2)C[C@]3(C)C(N)=O)cc1C
group: false (0)

compound: CC(=O)NCCc1c(Cc2ccccc2)[nH]c2ccccc12
group: false (0)

compound: CN(C)c1ccnc2sc3c(=O)n(N4CCCCCC4)cnc3c12
group: false (0)

compound: c1cc(OCCCN2CCCCC2)ccc1CN1CCCCC1
group: false (0)

compound: O=C(O)Cc1ccccc1Nc1c(Cl)cccc1Cl
group: false (0)

compound: CCOc1c2c(c(OCC)c3ncccc13)CN(c1ccc(CS(=O)(=O)NC(=O)Cc3ccccc3OC)cc1C)C2=O
group: false (0)

compound: Cl.Clc1ccc2nsnc2c1NC1=NCCN1 [TIZANIDINE HYDROCHLORIDE]
group: false (0)

compound: CC(C)(C)c1ccc(S(=O)(=O)Nc2ccc(Cl)cc2C(=O)c2cc[n+]([O-])cc2)cc1
group: false (0)

compound: Cc1ccc(F)cc1C(=O)Nc1ccc(C(=O)N2Cc3cccn3Cc3ccccc32)c(Cl)c1
group: false (0)

compound: CCNC1(C(N)=O)CCN(c2ncnc3c2nc(-c2ccccc2Cl)n3-c2ccc(Cl)cc2)CC1
group: false (0)

compound: CCCn1c(=O)c2[nH]c(C3CCCC3)nc2n(CCC)c1=O
group: true (1)

compound: C[C@@H]1C[C@H]2[C@@H]3CCC4=CC(=O)C=C[C@]4(C)[C@@]3(F)[C@@H](O)C[C@]2(C)[C@@]1(O)C(=O)CO
group: false (0)

compound: N#Cc1c(N)nc(SCc2csc(-c3ccc(Cl)cc3)n2)c(C#N)c1-c1ccc(OCCO)cc1
group: true (1)

compound: O=C(NCC(=O)N1CC[C@H](N[C@H]2CC[C@@](O)(c3ccc(-c4ncccn4)cn3)CC2)C1)c1cccc(C(F)(F)F)c1
group: false (0)

compound: Oc1c(CN2CCN(c3ccccn3)CC2)cc(Cl)c2cccnc12
group: false (0)

compound: N[C@@]1(C(=O)O)CO[C@H]2[C@H](C(=O)O)[C@H]21
group: false (0)

compound: CC[C@H]1OC(=O)[C@H](C)[C@@H](O[C@H]2C[C@@](C)(OC)[C@@H](O)[C@H](C)O2)[C@H](C)[C@@H](O[C@@H]2O[C@H](C)C[C@H](N(C)C)[C@H]2O)[C@@]2(C)CC(C)=C(O2)[C@H](C)[C@@H](O)[C@]1(C)O
group: false (0)

compound: CC1(COc2ccc3c(c2)ncn3-c2ccc3cccc(N4CCC(N)CC4)c3n2)COC1
group: true (1)

compound: C[C@H](NC(=O)c1c(C(F)F)nn(C)c1Oc1cccc(C(F)(F)F)c1)c1ccc(C(=O)O)cc1
group: true (1)

compound: O=C(NCCO)c1cccc(-c2cc(Nc3ccc(OC(F)(F)F)cc3)ncn2)c1
group: false (0)

compound: Cc1nc2ccc(Oc3ccc(F)cc3)cc2c(=O)n1C[C@H]1CCCN(C(C)C)C1.Cl
group: false (0)

compound: CCCN1CCC[C@@H]2Cc3n[nH]cc3C[C@H]21.Cl [QUINPIROLE HYDROCHLORIDE]
group: false (0)

compound: Cc1ccc(/C(=C\CN2CCCC2)c2ccccn2)cc1
group: false (0)

compound: C[C@H]1[C@H]2CC[C@H]3[C@@H]4CC=C5C[C@@H](N(C)C)CC[C@]5(C)[C@H]4CC[C@]23CN1C
group: false (0)

----------
// Population Mitochondria Different-Phenotype (%) lookup, one value per entry
Tested on: U2OS
method: Multiplex assay against U2OS
Format: toxicity, cell-based
applied.conditions: human, 12 h, 1 µM, compound concentration 1 uM, replicate 1
measured.quantity: Population Mitochondria Different-Phenotype (%)

smiles.input: Cc1nc2ccc(Oc3ccc(F)cc3)cc2c(=O)n1C[C@H]1CCCN(C(C)C)C1.Cl
units.of.measure: %
recorded.value: 3
//
smiles.input: CCOc1c2c(c(OCC)c3ncccc13)CN(c1ccc(CS(=O)(=O)NC(=O)Cc3ccccc3OC)cc1C)C2=O
units.of.measure: %
recorded.value: 3
//
smiles.input: CCNC1(C(N)=O)CCN(c2ncnc3c2nc(-c2ccccc2Cl)n3-c2ccc(Cl)cc2)CC1
units.of.measure: %
recorded.value: 7
//
smiles.input: C[C@@H]1C[C@H]2[C@@H]3CCC4=CC(=O)C=C[C@]4(C)[C@@]3(F)[C@@H](O)C[C@]2(C)[C@@]1(O)C(=O)CO
units.of.measure: %
recorded.value: 0
//
smiles.input: O=C(NCC(=O)N1CC[C@H](N[C@H]2CC[C@@](O)(c3ccc(-c4ncccn4)cn3)CC2)C1)c1cccc(C(F)(F)F)c1
units.of.measure: %
recorded.value: 3
//
smiles.input: Oc1c(CN2CCN(c3ccccn3)CC2)cc(Cl)c2cccnc12
units.of.measure: %
recorded.value: 1
//
smiles.input: COc1c(C)cc(NC(=O)c2nn(Cc3ccc(F)cc3)c3c2CN(C(=O)c2ccc[nH]2)C[C@]3(C)C(N)=O)cc1C
units.of.measure: %
recorded.value: 3
//
smiles.input: CC(=O)NCCc1c(Cc2ccccc2)[nH]c2ccccc12
units.of.measure: %
recorded.value: 4

----------
Test system: HEK-293T
method: Multiplex assay against HEK293T
Type: toxicity, cell-based
applied.conditions: human, 48 h, 10 µM, compound concentration 10 uM, replicate 2
Would you please tag the item met when its Population Mitochondria Different-Phenotype (%) is 30% or above, and not met when it is below?

molecule: CC[C@H]1OC(=O)[C@H](C)[C@@H](O[C@H]2C[C@@](C)(OC)[C@@H](O)[C@H](C)O2)[C@H](C)[C@@H](O[C@@H]2O[C@H](C)C[C@H](N(C)C)[C@H]2O)[C@@]2(C)CC(C)=C(O2)[C@H](C)[C@@H](O)[C@]1(C)O
group: met
--
molecule: C[C@@H]1C[C@H]2[C@@H]3CCC4=CC(=O)C=C[C@]4(C)[C@@]3(F)[C@@H](O)C[C@]2(C)[C@@]1(O)C(=O)CO
group: not met
--
molecule: O=C(O)Cc1ccccc1Nc1c(Cl)cccc1Cl
group: met
--
molecule: O=C1COc2nccc(-c3ccccc3F)c2CN1Cc1cc(C(F)(F)F)cc(C(F)(F)F)c1
group: met
--
molecule: COc1cc(NC(=O)CCN2CCC(OC(=O)Nc3ccccc3-c3ccccc3)CC2)c(Cl)cc1CNC[C@H](O)c1ccc(O)c2[nH]c(=O)ccc12
group: met
--
molecule: CC(=O)NCCc1c(Cc2ccccc2)[nH]c2ccccc12
group: met
--
molecule: Cc1ccc(F)cc1C(=O)Nc1ccc(C(=O)N2Cc3cccn3Cc3ccccc32)c(Cl)c1
group: met
--
molecule: CSc1ccccc1N1CCN(CCCCCC(=O)NC2CCCc3ccccc32)CC1.Cl (stereo unspecified)
group: met
--
molecule: CCOc1c2c(c(OCC)c3ncccc13)CN(c1ccc(CS(=O)(=O)NC(=O)Cc3ccccc3OC)cc1C)C2=O
group: not met
--
molecule: O=S(=O)(c1ccccc1)c1cnc2c(N3CCNCC3)cccc2c1 [INTEPIRDINE]
group: met
--
molecule: C[C@H](NC(=O)c1c(C(F)F)nn(C)c1Oc1cccc(C(F)(F)F)c1)c1ccc(C(=O)O)cc1
group: not met
--
molecule: Cc1ccc(-c2ccc(F)cc2COc2ccc(CCC(=O)O)cc2)cc1
group: not met
--
molecule: N[C@@]1(C(=O)O)CO[C@H]2[C@H](C(=O)O)[C@H]21
group: not met
--
molecule: C[C@H]1[C@H]2CC[C@H]3[C@@H]4CC=C5C[C@@H](N(C)C)CC[C@]5(C)[C@H]4CC[C@]23CN1C
group: met
--
molecule: Cc1ccccc1C(=O)Nc1ccc(C(=O)N2CCCC(N(C)C)c3ccccc32)cc1.Cl (stereo unspecified)
group: met
--
molecule: CC1(COc2ccc3c(c2)ncn3-c2ccc3cccc(N4CCC(N)CC4)c3n2)COC1
group: met

----------
Test system: Fibroblast
method: Multiplex assay against human fibroblast
Format: toxicity, cell-based
applied.conditions: 48 h, 1 µM, compound concentration 1 uM, replicate 1
// Population Mitotic Cells (%) lookup, one value per entry

compound: O=C(NCC(=O)N1CC[C@H](N[C@H]2CC[C@@](O)(c3ccc(-c4ncccn4)cn3)CC2)C1)c1cccc(C(F)(F)F)c1
system: Fibroblast
units.of.measure: %
Population Mitotic Cells (%): 41

compound: Cc1ccc(/C(=C\CN2CCCC2)c2ccccn2)cc1
system: Fibroblast
units.of.measure: %
Population Mitotic Cells (%): 45

compound: N#Cc1c(N)nc(SCc2csc(-c3ccc(Cl)cc3)n2)c(C#N)c1-c1ccc(OCCO)cc1
system: Fibroblast
units.of.measure: %
Population Mitotic Cells (%): 11

compound: C[C@H](NC(=O)c1c(C(F)F)nn(C)c1Oc1cccc(C(F)(F)F)c1)c1ccc(C(=O)O)cc1
system: Fibroblast
units.of.measure: %
Population Mitotic Cells (%): 46

compound: Cc1ccc(F)cc1C(=O)Nc1ccc(C(=O)N2Cc3cccn3Cc3ccccc32)c(Cl)c1
system: Fibroblast
units.of.measure: %
Population Mitotic Cells (%): 36

compound: CCCn1c(=O)c2[nH]c(C3CCCC3)nc2n(CCC)c1=O
system: Fibroblast
units.of.measure: %
Population Mitotic Cells (%): 27

compound: CSc1ccccc1N1CCN(CCCCCC(=O)NC2CCCc3ccccc32)CC1.Cl (stereo unspecified)
system: Fibroblast
units.of.measure: %
Population Mitotic Cells (%): 38

compound: Oc1c(CN2CCN(c3ccccn3)CC2)cc(Cl)c2cccnc12
system: Fibroblast
units.of.measure: %
Population Mitotic Cells (%): 45

compound: COc1c(C)cc(NC(=O)c2nn(Cc3ccc(F)cc3)c3c2CN(C(=O)c2ccc[nH]2)C[C@]3(C)C(N)=O)cc1C
system: Fibroblast
units.of.measure: %
Population Mitotic Cells (%): 12

compound: C[C@@H]1C[C@H]2[C@@H]3CCC4=CC(=O)C=C[C@]4(C)[C@@]3(F)[C@@H](O)C[C@]2(C)[C@@]1(O)C(=O)CO
system: Fibroblast
units.of.measure: %
Population Mitotic Cells (%): 53

compound: O=C(O)c1cc2ccccc2c(Cc2c(O)c(C(=O)O)cc3ccccc23)c1O
system: Fibroblast
units.of.measure: %
Population Mitotic Cells (%): 75

compound: CC1(COc2ccc3c(c2)ncn3-c2ccc3cccc(N4CCC(N)CC4)c3n2)COC1
system: Fibroblast
units.of.measure: %
Population Mitotic Cells (%): 25

compound: CN(C)CCCc1cc(C(=O)Nc2ccc(-c3ccncc3)cc2)ccc1O.Cl.Cl
system: Fibroblast
units.of.measure: %
Population Mitotic Cells (%): 37

compound: COc1ccc2c(c1)C(C(=O)N(Cc1ccc(N(C)C)cc1)c1ccc(C(C)C)cc1)CCC2.Cl (stereo unspecified)
system: Fibroblast
units.of.measure: %
Population Mitotic Cells (%): 33

compound: CC[C@H]1OC(=O)[C@H](C)[C@@H](O[C@H]2C[C@@](C)(OC)[C@@H](O)[C@H](C)O2)[C@H](C)[C@@H](O[C@@H]2O[C@H](C)C[C@H](N(C)C)[C@H]2O)[C@@]2(C)CC(C)=C(O2)[C@H](C)[C@@H](O)[C@]1(C)O
system: Fibroblast
units.of.measure: %
Population Mitotic Cells (%): 44

compound: N[C@@]1(C(=O)O)CO[C@H]2[C@H](C(=O)O)[C@H]21
system: Fibroblast
units.of.measure: %
Population Mitotic Cells (%): 23
